- Tested on: RXF 393 renal
- ASSAY_REMARKS: NCI tumour cell line growth inhibition, 48 h
Label rule, in plain words: TGI of 30 µM and up is yes, under 30 µM is no.

Solved entries:
INSERT INTO measurements (compound, cat) VALUES
  ('CC1(C)N=C(C(N)=O)c2ncn(N)c2N1', 'yes'),
  ('Cc1cccc2c(=O)c([Se]c3coc4c(C)cccc4c3=O)coc12', 'yes'),
  ('O=CN1CCN(C(=O)c2ccc(Cl)cc2Cl)C1=S', 'yes'),
  ('S=C(Nc1ccc(Br)cc1)Nc1ccc(Br)cc1', 'yes'),
  ('CN(C)c1ccc(C(=C(c2ccc(N(C)C)cc2)c2ccc(N(C)C)cc2)c2ccc(N(C)C)cc2)cc1', 'no');

## Task Entry CCCCCC(=O)C(C)C1=Nc2nnc(CCCCCCCc3nnc4n3C(=O)C(C(C)C(=O)CCCCC)=N4)n2C1=O (stereo unspecified) : is its TGI no less than 30 µM?
## Result yes

## Task Dear colleague, could you confirm whether [N-]=[N+]=C1N=CN=C1c1ncn[nH]1 has TGI at or above 30 µM?
## Result yes

====

- Tested on: 786-0 renal
- ASSAY_REMARKS: NCI tumour cell line growth inhibition, 48 h
Below is a list of entries, each paired with its recorded TGI value.

INSERT INTO measurements (compound, value_measured) VALUES
  ('O=C1CC2(c3ccccc3)ON=C(c3ccccc3)N2c2ccccc2N1 (stereo not drawn)', '> 100 µM'),
  ('COc1ccc(S(=O)(=O)N2CC(C)(C)CN(S(=O)(=O)c3ccc(OC)cc3)C2C(=O)NO)cc1', '> 20 µM'),
  ('CC1(C)N=C(C(N)=O)c2ncn(N)c2N1', '> 100 µM'),
  ('O=c1[nH]c(=O)n(C2OC(COP(=O)(O)OP(=O)(O)OC3OC(CO)C(O)C(O)C3O)C(O)C2O)cc1F (stereo not drawn)', '2.68 µM'),
  ('CC[N+](CC)=c1sc2c(s1)C(c1ccc(Cl)cc1)Oc1ccc(Cl)cc1-2 (stereo not drawn)', '3.76 µM');

## Task // lookup TGI for COC(=O)/C(=C\Nc1cccc(C)n1)S(=O)(=O)c1ccc(C)cc1
## Result > 100 µM

## Task Suppose we examine the compound CCCSc1ccc2[nH]c(N3C(=O)/C(=C/c4ccco4)N=C3c3ccccc3)cc2c1 ; what TGI value has been reported?
## Result > 50 µM

## Task Any idea what its TGI is? The compound is N#CCc1n[nH]c(Cc2ccccc2)n1
## Result > 100 µM

====

- Test system: RPMI-8226 leukemia
- ASSAY_REMARKS: NCI tumour cell line growth inhibition, 48 h
Below, each entry is listed with its recorded TGI.

In the examples that follow, each entry is paired with its recorded TGI.
INSERT INTO assay_data (compound, quantity_measured, value_measured) VALUES
  ('COC(=O)C1Cc2c(OC)ccc(OC)c2CC(C(=O)OC)C1=O (stereo unspecified)', 'TGI', '> 100 µM'),
  ('Cn1cc(C2=C(c3cn(CCCCN)c4ccccc34)C(=O)NC2=O)c2ccccc21', 'TGI', '> 25 µM');

## Task Tell me the measured TGI of C[C@]12CCC(=O)C=C1CC[C@@H]1[C@@H]2[C@@H](O)C[C@@]2(C)[C@H]1CC[C@]2(O)C(=O)COC(=O)COCC(=O)O , please.
## Result > 100 µM

## Task Given the compound CC[C@H](O)[C@H](C)C=C1SCCCS1 , what is its reported TGI?
## Result > 100 µM

## Task Find the recorded TGI belonging to O=C(NCCC1([N+](=O)[O-])CCN(C(=O)c2ccccc2)CC1)c1ccccc1 and report it.
## Result > 100 µM

## Task Reported TGI for CCCC(=O)NC1=C(Cl)C(=O)c2ccccc2C1=O : what is it?
## Result 6.19 µM

====

- Tested on: 786-0 renal
- ASSAY_REMARKS: NCI tumour cell line growth inhibition, 48 h
TGI values, listed per item

INSERT INTO measurements (compound, value_measured) VALUES
  ('O=C(/N=C/c1c(O)c2ccccc2oc1=O)Nc1ccccc1', '> 100 µM'),
  ('CC(=O)[CH-]C(C)=O.CC(=O)[CH-]C(C)=O.[CH2-]CCC.[CH2-]CCC.[Sn+4]', '1.56 µM'),
  ('COC(=O)N(C(=O)OC)C(C(=O)O)C(C)C (stereo unspecified)', '> 100 µM'),
  ('O=C1c2ccccc2-c2c1c1c(=O)[nH]c3ccccc3c1n2Cc1ccccc1', '85 µM');

## Task Consider the compound CN(CCn1cnc2c1c(=O)n(C)c(=O)n2C)C1CCCCC1 and give its measured TGI.
## Result > 100 µM

## Task I'd like to know its TGI. The compound in question is NC(N)=N/N=C/c1nc2n(c1[N+](=O)[O-])CCS2
## Result > 100 µM

## Task Need TGI, item O=C1c2ccccc2C(Br)(Br)c2ccccc21
## Result > 31.6 µM

## Task So what does the record say about TGI for C=C1C(O)C2C(=C(CCc3ccccc3)C13CC3)C(=O)C(C)(CO)C2O (stereo unspecified) ?
## Result > 100 µM

## Task Need TGI of CCOC(=O)C1(C/C=C(/C)Cl)CCCC1=O (stereo unspecified) , thanks.
## Result > 100 µM

## Task Query: TGI; subject: COc1ccc(-c2cn[nH]c2-c2cc(OC)c3c(c2)OCO3)cc1
## Result 14.2 µM

## Task Can you look up the measured TGI of CC(C)CC(NC(=O)c1cccc(O)c1O)C(=O)NCc1cc(CNC(=O)C(CC(C)C)NC(=O)c2cccc(O)c2O)cc(CNC(=O)C(CC(C)C)NC(=O)c2cccc(O)c2O)c1 (stereo unspecified) for me?
## Result > 100 µM

====

- Test system: DU-145 prostate
- ASSAY_REMARKS: NCI tumour cell line growth inhibition, 48 h; in the data active means GI50 below about 0.43 µM; inactive means the rest
Hi! Could you answer with just one of these? true (1) (active), false (0) (inactive)

See these solved cases before continuing.
INSERT INTO measurements (molecule, experimental_target, cat) VALUES
  ('O=C1c2ccccc2-c2c1c1c(=O)[nH]c3ccccc3c1n2Cc1ccccc1', 'DU-145 prostate', 'false (0)'),
  ('COc1ccc(-c2cn[nH]c2-c2cc(OC)c3c(c2)OCO3)cc1', 'DU-145 prostate', 'true (1)'),
  ('C=C1C(O)C2C(=C(CCc3ccccc3)C13CC3)C(=O)C(C)(CO)C2O (stereo unspecified)', 'DU-145 prostate', 'false (0)'),
  ('[Cl][Hg][Cl]', 'DU-145 prostate', 'false (0)'),
  ('COc1ccc(C(=O)/C=C/c2ccc(C)cc2)cc1OC', 'DU-145 prostate', 'false (0)');

## Task Could you please tell me the result logged for COC(=O)c1c2c(c[n+]([O-])c1C)C(=O)C=CC2=O in this assay?
## Result false (0)

## Task Please share the test call associated with COC(=O)CCc1c[nH]c2ccc(N(CCCl)CCCl)cc12 .
## Result false (0)

## Task Hi, sorry to bother you, what did the test record for CCC[CH2][Sn]([CH2]CCC)([CH2]CCC)[O]c1ccc(Cl)cc1Cl ?
## Result true (1)

## Task // param item: COc1cc(C#Cc2ccc(=O)oc2C#Cc2ccccc2)cc(OC)c1OC ; yields the recorded call
## Result false (0)

## Task What is the recorded call for this molecule in the test? Cc1sc2nc(-c3ccncc3)c(/C=N/N=C(N)N)n2c1C
## Result false (0)

## Task What is the recorded call for this molecule in the test? CNC(=O)c1ccc(N2CCN(Cc3ccc4nc(C)c(=O)[nH]c4c3F)CC2)c(F)n1
## Result false (0)

====

We begin with a simple list: items and their reported TGI.
- System: HOP-18 NSCLC
- ASSAY_REMARKS: NCI tumour cell line growth inhibition, 48 h

Reference set, count: 3
INSERT INTO results (molecule, value_measured) VALUES
  ('NC(CCCC(N)P(=O)(O)c1ccccc1)P(=O)(O)c1ccccc1 (configuration not stated)', '> 261 µM'),
  ('N[C@H](C(=O)O)[C@H]1ON=C(Cl)[C@@H]1O', '> 550 µM'),
  ('CC(=O)[CH-]C(C)=O.CC(=O)[CH-]C(C)=O.[CH2-]CCC.[CH2-]CCC.[Sn+4]', '1.88 µM');

## Task I have this molecule here, CCc1cc(Cc2cc(Cl)c(NC(=O)C(=O)C3NC(=O)NC3=O)c(CC)c2)cc(Cl)c1NC(=O)C(=O)C1NC(=O)NC1=O (configuration not stated) , and I need its recorded TGI.
## Result > 100 µM

## Task // query TGI value for entry O=C1c2ccccc2C(Br)(Br)c2ccccc21
## Result > 31.6 µM

## Task Reported TGI, molecule Cc1cccc2c(=O)c([Se]c3coc4c(C)cccc4c3=O)coc12 : ____
## Result 41.2 µM

## Task Name the recorded TGI for Cc1ccc(NC(=O)C2C(=O)N(c3ccc(C)cc3)C(=O)/C2=N\NC(N)=S)cc1 (configuration not stated) .
## Result > 100 µM

## Task Can you share its TGI? I mean this molecule: CN(C)c1ccc(C(=C(c2ccc(N(C)C)cc2)c2ccc(N(C)C)cc2)c2ccc(N(C)C)cc2)cc1
## Result 26.1 µM
